B1: Twister Ribozyme (parent)
chain: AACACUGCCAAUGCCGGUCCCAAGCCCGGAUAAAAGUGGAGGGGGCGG

- Variants of: B1
- protocol summary: self-cleavage, relative activity (ratio to wild type); higher = more cleavage; co-transcriptional
measured quantity: self-cleavage
The reply should be a number, written without any unit.

1) U6C G17U; 0.072
2) A2C U12A; 0.0702
3) A11U U37C; 0.583
4) C15A; 0.801
5) A35G; 0.864

Continue with the variant presented below.
Please give the measured self-cleavage for this variant: C3G C8A
0.174
